Origin of values: paper PMC4447944

- measured on: hEGFR(L858R) (Homo sapiens, UniProt P00533, L858R)
- Sequence (P00533 25-1210 L858R): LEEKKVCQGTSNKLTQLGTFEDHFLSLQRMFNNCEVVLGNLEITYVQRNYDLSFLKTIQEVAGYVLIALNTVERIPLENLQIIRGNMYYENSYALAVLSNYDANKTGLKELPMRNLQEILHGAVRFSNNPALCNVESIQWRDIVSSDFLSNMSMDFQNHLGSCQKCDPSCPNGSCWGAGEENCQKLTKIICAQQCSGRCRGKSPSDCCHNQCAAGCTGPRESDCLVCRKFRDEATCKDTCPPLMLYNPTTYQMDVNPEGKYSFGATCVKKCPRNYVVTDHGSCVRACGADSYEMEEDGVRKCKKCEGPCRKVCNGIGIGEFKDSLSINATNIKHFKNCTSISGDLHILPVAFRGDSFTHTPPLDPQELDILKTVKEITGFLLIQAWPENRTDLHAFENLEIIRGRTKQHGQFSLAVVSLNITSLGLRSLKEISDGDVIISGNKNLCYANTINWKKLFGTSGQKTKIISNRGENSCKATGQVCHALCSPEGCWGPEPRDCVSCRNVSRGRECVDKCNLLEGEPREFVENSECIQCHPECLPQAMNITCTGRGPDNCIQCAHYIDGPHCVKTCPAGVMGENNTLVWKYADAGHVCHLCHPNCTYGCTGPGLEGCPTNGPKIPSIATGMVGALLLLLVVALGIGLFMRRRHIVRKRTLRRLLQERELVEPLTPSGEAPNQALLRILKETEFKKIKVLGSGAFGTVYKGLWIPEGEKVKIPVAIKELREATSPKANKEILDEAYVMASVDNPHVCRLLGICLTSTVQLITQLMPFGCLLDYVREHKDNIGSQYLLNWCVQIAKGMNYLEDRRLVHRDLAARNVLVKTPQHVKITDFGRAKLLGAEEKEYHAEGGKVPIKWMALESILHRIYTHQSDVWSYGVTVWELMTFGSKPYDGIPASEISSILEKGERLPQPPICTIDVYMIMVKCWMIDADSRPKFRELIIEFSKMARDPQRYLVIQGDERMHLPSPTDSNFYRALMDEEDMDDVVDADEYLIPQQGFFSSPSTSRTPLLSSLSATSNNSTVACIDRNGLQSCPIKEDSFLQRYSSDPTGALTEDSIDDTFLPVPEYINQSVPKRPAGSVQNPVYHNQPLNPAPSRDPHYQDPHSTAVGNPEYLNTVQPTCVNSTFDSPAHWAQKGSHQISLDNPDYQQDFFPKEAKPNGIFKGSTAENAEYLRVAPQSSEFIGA
- procedure text: KINOMEscan
measured quantity: IC50

Answer with the recorded IC50 for the compound listed here: Cc1cn(CCN2CCN(c3ccccc3-c3cc(C#N)cc(C(=O)NCCCN4CCCC4)c3)CC2)c2ccccc12 [LLY-507]
> 20 µM

----------
- measured on: hSTK33 (Homo sapiens)
- Sequence (Q9BYT3 whole entry): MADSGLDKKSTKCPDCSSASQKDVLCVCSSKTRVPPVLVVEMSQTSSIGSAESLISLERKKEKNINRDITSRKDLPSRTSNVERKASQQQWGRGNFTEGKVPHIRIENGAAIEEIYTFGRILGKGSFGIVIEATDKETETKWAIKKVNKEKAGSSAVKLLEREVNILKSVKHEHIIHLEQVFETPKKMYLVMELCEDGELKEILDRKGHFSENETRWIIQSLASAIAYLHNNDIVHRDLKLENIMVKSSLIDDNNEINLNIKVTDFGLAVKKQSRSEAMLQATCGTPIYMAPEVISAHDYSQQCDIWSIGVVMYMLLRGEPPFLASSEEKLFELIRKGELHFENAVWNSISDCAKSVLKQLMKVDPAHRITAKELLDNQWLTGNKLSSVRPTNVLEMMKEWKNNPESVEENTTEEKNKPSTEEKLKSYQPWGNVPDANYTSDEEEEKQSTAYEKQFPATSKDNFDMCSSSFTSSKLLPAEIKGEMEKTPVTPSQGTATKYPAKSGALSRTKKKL
measured quantity: IC50

Write IC50 of Cc1cn(CCN2CCN(c3ccccc3-c3cc(C#N)cc(C(=O)NCCCN4CCCC4)c3)CC2)c2ccccc12 [LLY-507] ; system used: hSTK33 (Homo sapiens)
> 20 µM

----------
- measured on: hCSNK1G3 (Homo sapiens, UniProt Q9Y6M4)
- Sequence (Q9Y6M4 whole entry): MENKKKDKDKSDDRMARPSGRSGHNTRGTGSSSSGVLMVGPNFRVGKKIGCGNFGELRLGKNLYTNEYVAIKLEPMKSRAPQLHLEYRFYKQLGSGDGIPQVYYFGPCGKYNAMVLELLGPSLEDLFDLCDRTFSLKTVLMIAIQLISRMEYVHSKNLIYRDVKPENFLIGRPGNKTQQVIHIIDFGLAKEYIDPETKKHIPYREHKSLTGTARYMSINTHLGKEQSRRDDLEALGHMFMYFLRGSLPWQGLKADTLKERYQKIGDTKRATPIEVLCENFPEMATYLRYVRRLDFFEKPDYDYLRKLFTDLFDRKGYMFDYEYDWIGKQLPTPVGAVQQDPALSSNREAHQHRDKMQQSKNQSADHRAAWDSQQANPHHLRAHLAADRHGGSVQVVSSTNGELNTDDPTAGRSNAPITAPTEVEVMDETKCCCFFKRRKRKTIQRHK
pIC50: −log10 of the molar value.
measured quantity: pIC50

Input Cc1cn(CCN2CCN(c3ccccc3-c3cc(C#N)cc(C(=O)NCCCN4CCCC4)c3)CC2)c2ccccc12 [LLY-507] , output reported pIC50.
< 4.70
